assay: Hydrolysis of ester prodrugs in human plasma solutions (HPLC); conditions: plasma, pH 7.4

- COMPOUND: "CCN(CC)C(=O)COC(=O)c1cc(-c2ccc(F)cc2F)ccc1O [Example 70]"
  half-life [min]: 79
- COMPOUND: "CC(C)Cc1ccc(C(C)C(=O)OCC(=O)N(C)C)cc1 (stereo not shown) [Example 54]"
  half-life [min]: 8.6
- COMPOUND: "COc1ccc2c(c1)c(CC(=O)OCC(=O)N(C)CCO)c(C)n2C(=O)c1ccc(Cl)cc1 [Example 63]"
  half-life [min]: 140
- COMPOUND: "CCN(CC)C(=O)COC(=O)CCC(=O)c1ccc(-c2ccccc2)cc1 [Example 61]"
  half-life [min]: 3.8
- COMPOUND: "CCN(CC)C(=O)COC(=O)c1ccccc1Nc1cccc(Cl)c1C [Example 66]"
  half-life [min]: 5
- COMPOUND: "Cc1c(Cl)cccc1Nc1ccccc1C(=O)OCC(=O)N(C)C [Example 65]"
  half-life [min]: 2.8
- COMPOUND: "CCN(CC)C(=O)COC(=O)C(C)c1ccc(-c2ccccc2)c(F)c1 (stereo not shown) [Example 59]"
  half-life [min]: 4.7

###

Form field: half-life (one value per entry).
test: Hydrolysis of ester prodrugs in human plasma solutions (HPLC); conditions: 80% plasma, pH 7.4

- COMPOUND: "COC(=O)c1ccccc1Nc1cccc(Cl)c1C [Tolfenamic acid methyl ester, reference compound]"
  VALUE_COMPARATOR: "="
  half-life [h]: 100
- COMPOUND: "CCN(CC)C(=O)COC(=O)c1ccccc1O"
  VALUE_COMPARATOR: "="
  half-life [h]: 0.00133
- COMPOUND: "COC(=O)Cc1ccc(C(=O)c2ccc(C)cc2)n1C [Tolmetin methyl ester, reference compound]"
  VALUE_COMPARATOR: "="
  half-life [h]: 19
- COMPOUND: "CCN(CC)C(=O)COC(=O)Cc1ccc(C(=O)c2ccc(C)cc2)n1C [Tolmetin (R1=C2H5, R2=C2H5)]"
  VALUE_COMPARATOR: "="
  half-life [h]: 0.223
- COMPOUND: "COC(=O)[C@H]1CC[C@H](CN)CC1 [Tranexamic acid methyl ester, reference compound]"
  VALUE_COMPARATOR: ">"
  half-life [h]: 3

###

PROPERTY_MEASURED: log P (partition coefficient between octanol and water)

- SMILES_CODE: "O=C(OCC(=O)N1CCCC1=O)c1ccccc1"
  RECORDED_NUMBER: 1.83
- SMILES_CODE: "O=C(OCC(=O)N1CCCCC1)c1ccccc1"
  RECORDED_NUMBER: 1.95
- SMILES_CODE: "C=CCN(CC=C)C(=O)COC(=O)c1ccccc1"
  RECORDED_NUMBER: 2.34
- SMILES_CODE: "O=C(OCC(=O)N1CCOCC1)c1ccccc1"
  RECORDED_NUMBER: 0.90
- SMILES_CODE: "NC(=O)[C@@H]1CCCN1C(=O)COC(=O)c1ccccc1"
  RECORDED_NUMBER: 0.20

###

test: Hydrolysis of ester prodrugs in human plasma solutions (HPLC); conditions: plasma, pH 7.4
Structures can show the parent of a compound that is named as a salt.
Classify on half-life using one = under 2 min, two = from 2 min up to 10 min, three = 10 min and over

- COMPOUND: "CCN(CC)C(=O)COC(=O)Cc1ccc(C(=O)c2ccc(C)cc2)n1C [Tolmetin (R1=C2H5, R2=C2H5)]"
  DISCRETE_LABEL: "three"
- COMPOUND: "CCN(CCO)C(=O)COC(=O)c1ccccc1Nc1cccc(Cl)c1C"
  DISCRETE_LABEL: "two"
- COMPOUND: "CN(CC(N)=O)C(=O)COC(=O)c1ccccc1O"
  DISCRETE_LABEL: "one"
- COMPOUND: "CN(CC(N)=O)C(=O)COC(=O)Cc1ccc(-c2ccccc2)cc1"
  DISCRETE_LABEL: "two"
- COMPOUND: "CN(C)C(=O)COC(=O)c1ccccc1O"
  DISCRETE_LABEL: "one"
- COMPOUND: "CC(C)Cc1ccc(C(C)C(=O)OCC(=O)N(C)CC(N)=O)cc1 (stereo not drawn)"
  DISCRETE_LABEL: "two"
- COMPOUND: "COc1ccc2c(c1)c(CC(=O)OCC(=O)N(CCO)CCO)c(C)n2C(=O)c1ccc(Cl)cc1"
  DISCRETE_LABEL: "three"
- COMPOUND: "COc1ccc2cc([C@H](C)C(=O)OCC(=O)N(C)C)ccc2c1"
  DISCRETE_LABEL: "one"
- COMPOUND: "COc1ccc2cc([C@H](C)C(=O)OCC(=O)N(C)CC(N)=O)ccc2c1"
  DISCRETE_LABEL: "two"
- COMPOUND: "CC(C)Cc1ccc(C(C)C(=O)OCC(=O)N(C)CC(=O)NCN2CCOCC2)cc1 (stereo not drawn) [Example 51, HYDROCHLORIDE]"
  DISCRETE_LABEL: "three"
- COMPOUND: "CCN(CC)C(=O)COC(=O)c1ccccc1O"
  DISCRETE_LABEL: "one"
- COMPOUND: "CCN(CC)C(=O)COC(=O)C(C)c1cccc(C(=O)c2ccccc2)c1 (stereo not drawn)"
  DISCRETE_LABEL: "one"
- COMPOUND: "CN(C)C(=O)COC(=O)CCC(=O)c1ccc(-c2ccccc2)cc1"
  DISCRETE_LABEL: "two"
- COMPOUND: "CC(C(=O)OCC(=O)N(C)C)c1cccc(C(=O)c2ccccc2)c1 (stereo not drawn)"
  DISCRETE_LABEL: "one"
- COMPOUND: "CCN(CC)C(=O)COC(=O)CC1=C(C)/C(=C/c2ccc([S+](C)[O-])cc2)c2ccc(F)cc21 (stereo not drawn)"
  DISCRETE_LABEL: "three"
- COMPOUND: "CN1CCN(C(=O)COC(=O)c2ccccc2O)CC1"
  DISCRETE_LABEL: "three"
- COMPOUND: "CC(C(=O)OCC(=O)N(C)CC(N)=O)c1cccc(C(=O)c2ccccc2)c1 (stereo not drawn) [Ketoprofen (R1=CH3, R2=CH2CONH2)]"
  DISCRETE_LABEL: "two"
- COMPOUND: "CC(C(=O)OCC(=O)N(C)C)c1ccc(-c2ccccc2)c(F)c1 (stereo not drawn)"
  DISCRETE_LABEL: "three"

Where these numbers come from: patent US5073641A
